# measured.target: biphenyl hydrolase-like enzyme (BPHL) (Homo sapiens, UniProt Q86WA6)
# Sequence (Q86WA6 38-291): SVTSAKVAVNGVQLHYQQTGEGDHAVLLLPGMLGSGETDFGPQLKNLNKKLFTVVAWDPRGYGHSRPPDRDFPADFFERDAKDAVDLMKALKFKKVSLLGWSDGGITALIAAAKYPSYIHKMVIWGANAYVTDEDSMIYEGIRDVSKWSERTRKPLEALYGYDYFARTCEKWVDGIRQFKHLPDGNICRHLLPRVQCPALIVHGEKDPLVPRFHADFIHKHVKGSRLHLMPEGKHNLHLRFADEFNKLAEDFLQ
# Format: biochemical
Overview of reported % of Control (VACV) across a group of molecules:

molecule: NCCCC[C@H](N)C(=O)OC[C@H]1O[C@@H](n2cc(F)c(=O)[nH]c2=O)C[C@@H]1O [5′ lysyl monoester Floxuridine]
measured.target: biphenyl hydrolase-like enzyme (BPHL) (Homo sapiens, UniProt Q86WA6)
% of Control (VACV), %: 8.1

molecule: NC(CC(=O)O)C(=O)OC1CC(n2cc(F)c(=O)[nH]c2=O)OC1CO (stereo not shown) [3′-O-aspartyl-Floxuridine]
measured.target: biphenyl hydrolase-like enzyme (BPHL) (Homo sapiens, UniProt Q86WA6)
% of Control (VACV), %: 2.0

molecule: NC(CC(=O)O)C(=O)OCC1OC(n2cc(F)c(=O)[nH]c2=O)CC1OC(=O)C(N)CC(=O)O (stereo not shown) [3′,5′-di-O-aspartyl-Floxuridine]
measured.target: biphenyl hydrolase-like enzyme (BPHL) (Homo sapiens, UniProt Q86WA6)
% of Control (VACV), %: 0.0

molecule: N[C@@H](Cc1ccccc1)C(=O)OC[C@H]1O[C@@H](n2cc(F)c(=O)[nH]c2=O)C[C@@H]1OC(=O)[C@@H](N)Cc1ccccc1 [3′,5′-di-O-phenylalanyl-Floxuridine]
measured.target: biphenyl hydrolase-like enzyme (BPHL) (Homo sapiens, UniProt Q86WA6)
% of Control (VACV), %: 8.9

molecule: NCCCC[C@H](N)C(=O)O[C@H]1C[C@H](n2cc(F)c(=O)[nH]c2=O)O[C@@H]1CO [3′ lysyl monoester Floxuridine]
measured.target: biphenyl hydrolase-like enzyme (BPHL) (Homo sapiens, UniProt Q86WA6)
% of Control (VACV), %: 7.3

molecule: CC(C)[C@H](N)C(=O)OCCOCn1cnc2c(=O)[nH]c(N)nc21 [Valacyclovir]
measured.target: biphenyl hydrolase-like enzyme (BPHL) (Homo sapiens, UniProt Q86WA6)
% of Control (VACV), %: 100.0

molecule: CC(C)[C@H](N)C(=O)O[C@H]1C[C@H](n2cc(F)c(=O)[nH]c2=O)O[C@@H]1CO [3′-O-valyl-Floxuridine]
measured.target: biphenyl hydrolase-like enzyme (BPHL) (Homo sapiens, UniProt Q86WA6)
% of Control (VACV), %: 3.3

Sourced from patent US20070167353A1
